FYI, the data here is from PubChem BioAssay (NCI).

- Test system: PC-3 prostate
- test.details: NCI-60 one-dose screen, 48 h (100 = growth as untreated, 0 = no growth, -100 = all killed)
- test.settings: 10 µM
Compounds without any hit were thinned out: in the full panel of roughly 83,000, 20% have a hit.
Label class 1 for high-side growth (at or above 30%) and class 0 for low-side growth (below it).

{"columns": ["compound", "category"],
 "data": [
  ["COc1cc(/C=N/NC(=O)c2ccccc2Nc2ccnc(C(F)(F)F)c2)ccc1O", "class 1"],
  ["COc1cc(-c2cc(/C=C3\\C(=O)Nc4cc(Cl)ccc43)[nH]n2)cc(OC)c1OC", "class 0"],
  ["COc1ccc(-c2cc(-c3cccc(NS(C)(=O)=O)c3)nc(N)c2C#N)cc1", "class 0"],
  ["CCOC(=O)C(=Cc1ccc(Br)cc1)C(=O)OCC", "class 0"],
  ["COc1cc(-c2cc(/C=C/C(=O)c3ccc(N)cc3)[nH]n2)cc(OC)c1OC", "class 0"],
  ["O=C(Nc1nc(-c2ccccc2Cl)cs1)c1cc(-c2ccc(Cl)cc2)nc2ccc(Cl)cc12", "class 0"],
  ["O=C(Nc1cccc(-n2cc(-c3ccncc3)c(-c3ccc(O)c(Cl)c3)n2)c1)c1cc(C(F)(F)F)cc(C(F)(F)F)c1", "class 0"],
  ["C/C(=N\\Nc1nc2ccccc2s1)c1ccncn1", "class 0"],
  ["c1ccc(C(NC2CC3CCC2C3)c2ccccc2)cc1 (configuration not stated)", "class 1"],
  ["CCN(CC)Cc1cc(Nc2ccnc3cc(Cl)ccc23)ccc1OC", "class 1"],
  ["Nc1c(C(=O)Nc2cccc(F)c2)sc2nc3c(cc12)C(=O)CCC3", "class 0"],
  ["O=C(CC(c1ccccc1)N1CCOCC1)c1ccccc1 (configuration not stated)", "class 1"],
  ["CC[C@H]1CCC/C=C/[C@@H]2C[C@H](O)C[C@H]2[C@H](O)/C=C/C(=O)O1", "class 0"],
  ["CN(C)CCN=c1nc2c(c(N)n1-c1ccccc1)c(=S)n(-c1ccccc1)c(=S)n2-c1ccccc1", "class 1"],
  ["COc1cc(-c2nn3c(/C=C4/C(=O)Nc5ccccc54)c(-c4ccc(C)cc4)nc3s2)cc(OC)c1OC", "class 1"],
  ["CS(=O)(=O)Nc1cccc(-c2cc(-c3ccccc3Cl)c(C#N)c(N)n2)c1", "class 0"]
]}

###

- Test system: PC-3 prostate
- test.details: NCI-60 one-dose screen, 48 h (100 = growth as untreated, 0 = no growth, -100 = all killed)
- test.settings: 10 µM
About 83,000 compounds went through this panel and 20% of them were active in at least one assay; those are over-represented in the sample as a whole.
# growth annotations
parameter.measured: growth (%)

{"columns": ["compound", "experimental.result"],
 "data": [
  ["COc1ccc(-c2nn(-c3cccc(NC(=O)Nc4ccccc4)c3)cc2-c2ccncc2)cc1Cl", 8.81],
  ["COc1ccc(OC)c(/C=C/c2nc(SC)n(-c3ccc(Cl)cc3)n2)c1", 38.9],
  ["CC(C)C[C@H](NC(=O)[C@H](Cc1cccc2ccccc12)NS(=O)(=O)c1cccc2cccnc12)B(O)O", -23.2],
  ["c1ccc([C@H]2CN3CCSC3=N2)cc1", 98.9],
  ["CCCCCCCC(C)NCCO (configuration not stated)", 105],
  ["Clc1ccc(Nc2ccnc(NCCNc3ccnc4cc(Cl)ccc34)n2)cc1", 14.7],
  ["CC(=O)O[C@]1(C)CC[C@H]2[C@H](CNCCc3ccc(Cl)cc3)C(=O)O[C@@H]2C2=C(C)C(=O)C[C@H]21", 86.9],
  ["Nc1nc(N=Nc2ccc(O)cc2)cc(=O)[nH]1", 104],
  ["O=c1[nH]c(-c2ccc(Cl)cc2)nc2sc3c(c12)CCCC3", 93.2],
  ["CC(C)(C)c1ccc(N2CSC(=S)N(c3ccc(C(C)(C)C)cc3)C2)cc1", 73.8],
  ["COc1cc(/C=C2\\CCCC3=C2N=C2SC=NN2C3c2cc(OC)c(OC)c(OC)c2)cc(OC)c1OC (configuration not stated)", 66.4],
  ["CCOC(=O)c1ccc(NC(=O)Nc2ncc(Cl)cc2Cl)cc1", 77],
  ["O=C(CCCCC(=O)Nc1ccc2c(c1)/C(=C/c1ccc[nH]1)C(=O)N2)NO", 80.1],
  ["COc1cc(-c2nc(-c3nnc(-c4ccc(F)c(Cl)c4)o3)c3ccccn23)cc(OC)c1OC", 56.1],
  ["O=c1[nH]c2ccc(Cl)cc2c2ccccc12", 92.8],
  ["NC(=O)c1ccc(-c2cccc3c(=O)nc(N4CCOCC4)oc23)cc1", 89.9],
  ["CC(=O)c1nc2ccccc2n1CCN1CCN(C)CC1", 33.4],
  ["C#Cc1ccc(-n2c(/C=C/c3ccc(Cl)c(F)c3)nc3ncccc3c2=O)cc1", 2.16],
  ["COc1cc(-c2nc(-c3nnc(-c4ccccc4Cl)o3)c3ccccn23)cc(OC)c1OC", 74.2],
  ["COc1ccc(-c2nn(-c3cccc(NC(=O)Nc4cc(C(F)(F)F)cc(C(F)(F)F)c4)c3)cc2-c2ccncc2)cc1Cl", -14.7],
  ["Oc1[nH]c2ccc(Cl)cc2c1/C=c1/ccc2c(c1)N=C(c1cccs1)N=2", 62.5],
  ["C/C(N)=C(\\C#N)C(=O)c1ccccc1", 98.2]
]}
